- Target of assay: UniProtKB P43220
- Sequence (P43220 24-463): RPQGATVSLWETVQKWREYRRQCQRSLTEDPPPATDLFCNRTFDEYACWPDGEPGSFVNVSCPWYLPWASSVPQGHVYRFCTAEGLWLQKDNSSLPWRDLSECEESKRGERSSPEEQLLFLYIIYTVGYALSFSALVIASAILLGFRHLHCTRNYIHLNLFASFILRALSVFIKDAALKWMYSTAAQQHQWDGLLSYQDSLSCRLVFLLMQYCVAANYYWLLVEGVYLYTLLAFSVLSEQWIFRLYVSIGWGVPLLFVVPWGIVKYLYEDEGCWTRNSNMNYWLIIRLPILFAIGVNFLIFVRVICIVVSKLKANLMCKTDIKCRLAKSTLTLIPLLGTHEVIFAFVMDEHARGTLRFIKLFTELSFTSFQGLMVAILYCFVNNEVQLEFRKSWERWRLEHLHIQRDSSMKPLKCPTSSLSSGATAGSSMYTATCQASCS
- Assay name: GLP-1R agonist cAMP stimulation assay, Method 2 (HDB HEK293/GLP1R/CRE-LUC, Cisbio cAMP dynamic 2 kit)
- Assay type: cell-based
- Protocol conditions: HEK293/GLP1R/CRE-LUC cells (HD Biosciences); 30 min at 37° C.; 0.5 mM IBMX, 0.1% BSA; geometric mean where n>=2; read-out: GLP1R cAMP Stimulation DR: EC50 (nM) Method 2 (HDB)
Criterion: EC50 strictly under 0.04 nM. Met: Criterion met. Not met: Criterion not met.

[
  {
    "Compound": "O=C(O)c1cc2c(cn1)nc(CC1CC=C(c3cccc(OCc4ccc(Cl)cc4F)n3)CC1)n2C[C@@H]1CCO1 (stereo partly shown) [Compound 116a]",
    "Target of assay": "UniProtKB P43220",
    "Discrete label": "Criterion not met"
  },
  {
    "Compound": "N#Cc1ccc(COc2cccc(C3=CCC(Cc4nc5cnc(C(=O)O)cc5n4C[C@@H]4CCO4)CC3)n2)c(F)c1 (stereo partly shown) [Compound 117a]",
    "Target of assay": "UniProtKB P43220",
    "Discrete label": "Criterion not met"
  },
  {
    "Compound": "O=C(O)c1ccc2nc(CC3CC=C(c4nccc(OCc5ccc(Cl)cc5F)n4)CC3)n(C[C@@H]3CCO3)c2n1 (stereo partly shown) [Compound 103a]",
    "Target of assay": "UniProtKB P43220",
    "Discrete label": "Criterion not met"
  },
  {
    "Compound": "O=C(O)c1ccc2nc(CC3CC=C(c4cccc(OCc5ccc(Cl)cc5F)n4)CC3)n(C[C@@H]3CCO3)c2n1 (single isomer, unassigned) [Compound 102c]",
    "Target of assay": "UniProtKB P43220",
    "Discrete label": "Criterion not met"
  },
  {
    "Compound": "O=C(O)c1ccc2nc(CC3CC=C(c4ncc(F)c(OCc5ccc(Cl)cc5F)n4)CC3)n(C[C@@H]3CCO3)c2n1 (stereo partly shown) [Compound 114a]",
    "Target of assay": "UniProtKB P43220",
    "Discrete label": "Criterion met"
  },
  {
    "Compound": "O=C(O)c1ccc2nc(Cc3ccc(-c4cccc(OCc5ccc(Cl)cc5F)n4)cc3)n(C[C@@H]3CCO3)c2n1 [Compound 120aw]",
    "Target of assay": "UniProtKB P43220",
    "Discrete label": "Criterion met"
  },
  {
    "Compound": "COCCn1c(CC2CC=C(c3ncc(F)c(OCc4ccc(Cl)cc4F)n3)CC2)nc2ccc(C(=O)O)nc21 (stereo not shown) [Compound 127]",
    "Target of assay": "UniProtKB P43220",
    "Discrete label": "Criterion not met"
  },
  {
    "Compound": "N#Cc1ccc(COc2nc(C3=CCC(Cc4nc5ccc(C(=O)O)nc5n4CC4CC4)CC3)ncc2F)c(F)c1 (stereo not shown) [Compound 122]",
    "Target of assay": "UniProtKB P43220",
    "Discrete label": "Criterion not met"
  },
  {
    "Compound": "O=C(O)c1ccc2nc(CC3CC=C(c4ccnc(OCc5ccc(Cl)cc5F)n4)CC3)n(C[C@@H]3CCO3)c2n1 (stereo partly shown) [Compound 104a]",
    "Target of assay": "UniProtKB P43220",
    "Discrete label": "Criterion not met"
  },
  {
    "Compound": "N#Cc1ccc(COc2cccc(C3=CCC(Cc4nc5ccc(C(=O)O)nc5n4C[C@@H]4CCO4)CC3)n2)c(F)c1 (stereo partly shown) [Compound 101a]",
    "Target of assay": "UniProtKB P43220",
    "Discrete label": "Criterion met"
  },
  {
    "Compound": "CC#CCn1c(CC2CC=C(c3cccc(OCc4ccc(Cl)cc4F)n3)CC2)nc2ccc(C(=O)O)nc21 (stereo not shown) [Compound 128]",
    "Target of assay": "UniProtKB P43220",
    "Discrete label": "Criterion not met"
  },
  {
    "Compound": "O=C(O)c1ccc2nc(Cc3ccc(-c4nccc(OCc5ccc(Cl)cc5F)n4)cc3)n(C[C@@H]3CCO3)c2n1 [Compound 101aw]",
    "Target of assay": "UniProtKB P43220",
    "Discrete label": "Criterion not met"
  },
  {
    "Compound": "O=C(O)c1ccc2nc(CC3CC=C(c4cccc(OCc5ccc(Cl)cc5F)n4)CC3)n(C[C@@H]3CCO3)c2n1 (stereo partly shown) [Compound 102a]",
    "Target of assay": "UniProtKB P43220",
    "Discrete label": "Criterion met"
  }
]
